Give measured Hb for each item. Keep answers brief.
Species on record: Rattus norvegicus
Assay: Open TG-GATES - Regimen: Single
Format: toxicity, organism-based, Sprague-Dawley
Parameters: regimen Single, gender Male, age 6 weeks
Conditions: in vivo, po, 100 mg/kg, 3 h, tissue Blood, route gavage, dose level Low
Please reply with the bare figure in g/dL and do not write the unit itself.

Field request: Hb | item: "Clc1ccccc1CN1CCc2sccc2C1"
13.4

Field request: Hb | item: "O=C(O)c1cn(C2CC2)c2cc(N3CCNCC3)c(F)cc2c1=O"
12.9

Field request: Hb | item: "O=C(O)c1cc(/N=N/c2ccc(S(=O)(=O)Nc3ccccn3)cc2)ccc1O"
13

Field request: Hb | item: "C[C@H](CS)C(=O)N1CCC[C@H]1C(=O)O"
13.1

Field request: Hb | item: CCc1cc(C(N)=S)ccn1 [ETHIONAMIDE]
13.8
